Taken from patent US20100183625A1.

- tested-system: T1, human plasma kallikrein (human, UniProt P03952 20-390; P03952 391-638)
- T1 construct: also called pKal; human pKal
- T1 sequence (P03952 20-390, chain 1 of 2): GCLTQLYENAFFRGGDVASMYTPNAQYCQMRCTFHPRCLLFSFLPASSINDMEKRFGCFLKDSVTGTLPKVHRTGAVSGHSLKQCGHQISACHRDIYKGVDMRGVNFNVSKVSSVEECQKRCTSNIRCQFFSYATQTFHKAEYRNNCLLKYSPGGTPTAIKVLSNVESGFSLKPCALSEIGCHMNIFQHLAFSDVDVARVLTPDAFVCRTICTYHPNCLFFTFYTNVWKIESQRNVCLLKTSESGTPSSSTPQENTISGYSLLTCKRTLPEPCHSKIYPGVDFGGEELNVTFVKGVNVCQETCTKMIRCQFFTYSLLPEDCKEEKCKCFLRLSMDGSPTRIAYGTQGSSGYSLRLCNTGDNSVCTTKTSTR
- T1 sequence (P03952 391-638, chain 2 of 2): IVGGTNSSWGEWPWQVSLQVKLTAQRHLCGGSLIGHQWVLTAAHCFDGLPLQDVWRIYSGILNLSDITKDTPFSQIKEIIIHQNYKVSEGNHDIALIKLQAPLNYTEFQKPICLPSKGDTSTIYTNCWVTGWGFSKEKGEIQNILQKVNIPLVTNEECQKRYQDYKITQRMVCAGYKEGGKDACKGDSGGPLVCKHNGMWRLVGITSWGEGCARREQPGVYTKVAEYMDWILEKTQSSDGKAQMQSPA
- protocol-details: apparent Ki (Ki,app), inhibition of human pKal activity
parameter-measured: Ki

1. M137-E12 (antibody, V domains shown) VH: EVQLLESGGGLVQPGGSLRLSCAASGFTFSDYRMQWVRQAPGKGLEWVSVIVPSGGNTMYADSVKGRFTISRDNSKNTLYLQMNSLRAEDTAVYYCARGGPGSSIAARPAPTGYYGMDVWGQGTTVTVSS VL: QSVLIQPPSVSGIPGQRVTISCSGNNSNFGSNTVTWYQQLPGTAPKLLIYSDSRRPSGVPDRFSGSRSDTSASLAISGLQSEDEAEYHCAAWDDSLNGVFGGGTKLTVL	79 nM
2. M12-B05 (antibody, V domains shown) VH: EVQLLESGGGLVQPGGSLRLSCAASGFTFSWYTMVWVRQAPGKGLEWVSYIYPSGGATFYADSVKGRFTISRDNSKNTLYLQMNSLRAEDTAVYYCAMGSYDYIWGFYSDHWGQGTLVTVSS VL: QSALTQPPTVSVSPGQTARITCSGNKLGDKYVAWYQQKPGQSPMLVIYQDTKRPSRVSERFSGSNSANTATLSISGTQALDEADYYCQAWDSSIVIFGGGTRLTVL	4.9 nM
3. M6-D09 (antibody, V domains shown) VH: EVQLLESGGGLVQPGGSLRLSCAASGFTFSFYYMVWVRQAPGKGLEWVSVIYPSGGITVYADSVKGRFTISRDNSKNTLYLQMNSLRAEDTAVYYCARDKWAVMPPYYYYAMDVWGQGTTVTVSS VL: DIQMTQSPSSLSASVSDRVTITCRASQSIRNYLNWYQQKPSKAPNLLIYAASTLQSGVPARFSGSGSGTDFTLTISSLQPEDFATYYCQQLSGYPHTFGQGTKLEIK	5.9 nM
